Assay: probe aLefty2 binding to arrayed compounds – biochemical, biotinylated probe, 635/667 nm fluorescence, primary screen (AID 1094);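 note: score merges spot fluorescence near 667 nm with spot signal-to-noise ratio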
Conditions: small-molecule microarray, higher = more signal
Label rule met when composite z-score is at or above -0.02; anything below gets rule not met.

Prompt: Confirm if composite z-score reported for the molecule `COc1ccc([Si](C)(C)[C@H]2[C@H](CCO)O[C@@]3(C(=O)N(Cc4ccccc4)c4ccc(N5C(=O)COc6ccccc65)cc43)[C@@H]2C)cc1` is -0.02 or above.
Completion: rule met

Prompt: Confirm if composite z-score reported for the molecule `C#C[C@H](O[Si](C#CCCCCCC)(C(C)C)C(C)C)c1ccccc1` is -0.02 or above.
Completion: rule not met

Prompt: Confirm if composite z-score reported for the molecule `COC(=O)[C@@]1(Cc2ccccc2)[C@H]2c3cc(C(=O)N(C)C)n(Cc4ccccc4)c3C[C@H]2CN1C(=O)c1ccccc1` is -0.02 or above.
Completion: rule met

Prompt: Confirm if composite z-score reported for the molecule `C=CCOC(=O)[C@H]1[C@@H]2C(=O)O[C@@H](c3ccccc3)[C@@H](c3ccccc3)N2[C@@H](c2ccc(OCCOC(=O)[C@@H]3C[C@@H]4C(=O)NCC(=O)N4[C@@H]3c3ccc(O)cc3)cc2)[C@]12C(=O)Nc1ccc(I)cc12` is -0.02 or above.
Completion: rule not met

Prompt: Confirm if composite z-score reported for the molecule `C=CCN1C(=O)[C@@]2(O[C@@H](CCO)[C@H]([Si](C)(C)c3ccc(OC)cc3)[C@H]2C)c2cc(NC(C)=O)ccc21` is -0.02 or above.
Completion: rule not met

Prompt: Confirm if composite z-score reported for the molecule O=C1OCC=C[C@H]2OC34C=CCN(c5ccc6ccccc6c5)C(=O)[C@H]3N(CCO)C(=O)[C@@H]4[C@@H]12 (some centres not stated) is -0.02 or above.
Completion: rule not met

Prompt: Confirm if composite z-score reported for the molecule `C=CCN1C(=O)[C@]2(COC(c3ccc(OCCCO)cc3)=N2)Cc2ccccc21` is -0.02 or above.
Completion: rule met
